Molecular target: EED (1-441)-His protein (Homo sapiens, UniProt O75530)
Construct: 30 nM EED (1-441)-His protein
Sequence (O75530 whole entry): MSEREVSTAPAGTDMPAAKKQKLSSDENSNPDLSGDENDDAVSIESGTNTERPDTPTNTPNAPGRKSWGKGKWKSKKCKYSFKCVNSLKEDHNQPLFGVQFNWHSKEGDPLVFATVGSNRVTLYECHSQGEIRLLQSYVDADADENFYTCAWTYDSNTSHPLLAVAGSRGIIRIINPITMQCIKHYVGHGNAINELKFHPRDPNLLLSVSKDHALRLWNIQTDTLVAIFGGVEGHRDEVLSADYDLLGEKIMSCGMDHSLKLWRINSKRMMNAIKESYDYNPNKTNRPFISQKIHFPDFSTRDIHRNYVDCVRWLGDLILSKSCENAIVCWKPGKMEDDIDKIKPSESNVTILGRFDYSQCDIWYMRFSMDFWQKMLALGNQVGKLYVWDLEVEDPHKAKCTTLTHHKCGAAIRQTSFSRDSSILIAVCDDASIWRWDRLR
Experiment: EED-H3K27Me3 peptide competition binding assay by AlphaScreen
Conditions: read-out: (a) IC50, EED Alphascreen binding Qualified
Doc: threshold 80 nM (exclusive). Items with IC50 beneath it return Satisfied; others return Not satisfied.

compound=COc1ccc(F)c(CNc2ccc(-c3ccc(CN(C)C)cc3)c3nncn23)c1 class_name="Not satisfied"
compound=COc1cccc(F)c1CNc1ccc(-c2ccc(N(C)S(C)(=O)=O)nc2)c2nncn12 class_name=Satisfied
compound="COc1ccccc1CNc1ccc(-c2ccc(N3CC(C)N(C)CC3C)nc2)c2nncn12 (stereo not drawn)" class_name=Satisfied
compound=COc1ccccc1CNc1ccc(-c2ccc(CN3CC(F)(F)C3)cc2)c2nncn12 class_name=Satisfied
compound=CN(C)Cc1ccc(-c2ccc(NCc3ccccc3OC(F)F)n3cnnc23)cc1 class_name="Not satisfied"
compound=COc1ccccc1CNc1ccc(-c2ccc(C(C)=O)cc2)c2nncn12 class_name=Satisfied
compound=COc1ccccc1CNc1ccc(-c2ccc(-c3nn[nH]n3)cc2)c2nncn12 class_name="Not satisfied"
compound=CCc1nc(-c2ccc(NCc3c(F)cccc3OC)n3cnnc23)no1 class_name=Satisfied
compound=COc1cccc(F)c1CNc1ccc(-c2ccc(NS(C)(=O)=O)cc2)c2nncn12 class_name=Satisfied
